- protocol-notes: Two-period crossover pharmacokinetics of nalmefene 3 mg IN vs 1.0 mg IM (Example 12)
- run-conditions: human, plasma, intramuscular, 1 mg, Median plasma concentration, Treatment B 1.0 mg IM; 0.00 h
reported-endpoint: concentration at 0 h (ng/mL)
Answer in ng/mL, number only, no unit symbol.

C=C1CC[C@@]2(O)[C@H]3Cc4ccc(O)c5c4[C@@]2(CCN3CC2CC2)[C@H]1O5 [Nalmefene] has a reported concentration at 0 h of 0

* * *

- protocol-notes: Two-period crossover pharmacokinetics of nalmefene 3 mg IN vs 1.0 mg IM (Example 12)
- run-conditions: human, plasma, other: intranasal, 3 mg, Median plasma concentration, Treatment A 3.0 mg IN; […]
reported-endpoint: concentration at 48 h

"C=C1CC[C@@]2(O)[C@H]3Cc4ccc(O)c5c4[C@@]2(CCN3CC2CC2)[C@H]1O5" has a reported concentration at 48 h of 0.0843 ng/mL

* * *

- protocol-notes: Two-period crossover pharmacokinetics of nalmefene 3 mg IN vs 1.0 mg IM (Example 12)
- run-conditions: human, plasma, im, 1 mg, AUC0-20 min, Treatment B: 1.0 mg nalmefene IM (gluteal muscle); plasma; Median, n 68
reported-endpoint: AUC(0-t) (ng·h/mL)
Answer in ng·h/mL, number only, no unit symbol.

"C=C1CC[C@@]2(O)[C@H]3Cc4ccc(O)c5c4[C@@]2(CCN3CC2CC2)[C@H]1O5" has a reported AUC(0-t) of 0.228

* * *

- protocol-notes: Three-treatment crossover pharmacokinetics of IN nalmefene, three dosing regimens (Example 13)
- run-conditions: human, plasma, other: intranasal (IN spray), 6 mg, […], Median; Time 0.0416; T3: 6 mg nalmefene HCl IN, two 0.1 mL sprays in one nostril
reported-endpoint: concentration at 2.5 min (ng/mL)
Answer in ng/mL, number only, no unit symbol.

C=C1CC[C@@]2(O)[C@H]3Cc4ccc(O)c5c4[C@@]2(CCN3CC2CC2)[C@H]1O5 [Nalmefene] has a reported concentration at 2.5 min of 0.746

* * *

- protocol-notes: Three-treatment crossover pharmacokinetics of IN nalmefene, three dosing regimens (Example 13)
- run-conditions: human, plasma, other: intranasal (IN spray), 6 mg, AUC0-5 min, mean, Treatment B (T2) 3 mg in each nostril (6 mg)
reported-endpoint: AUC(0-t) (ng·h/mL)
Answer in ng·h/mL, number only, no unit symbol.

"C=C1CC[C@@]2(O)[C@H]3Cc4ccc(O)c5c4[C@@]2(CCN3CC2CC2)[C@H]1O5" has a reported AUC(0-t) of 0.222

* * *

- protocol-notes: Three-treatment crossover pharmacokinetics of IN nalmefene, three dosing regimens (Example 13)
- run-conditions: human, plasma, other: intranasal (IN spray), 6 mg, […], Mean; Time 24.0; T3: 6 mg nalmefene HCl IN, two 0.1 mL sprays in one nostril
reported-endpoint: concentration at 24 h (ng/mL)
Answer in ng/mL, number only, no unit symbol.

"C=C1CC[C@@]2(O)[C@H]3Cc4ccc(O)c5c4[C@@]2(CCN3CC2CC2)[C@H]1O5" has a reported concentration at 24 h of 0.792

* * *

- protocol-notes: Three-treatment crossover pharmacokinetics of IN nalmefene, three dosing regimens (Example 13)
- run-conditions: human, plasma, other: intranasal, 3 mg, […], Mean, T1 (3 mg IN, one spray in one nostril); time 2.00
reported-endpoint: concentration at 2 h (ng/mL)
Answer in ng/mL, number only, no unit symbol.

C=C1CC[C@@]2(O)[C@H]3Cc4ccc(O)c5c4[C@@]2(CCN3CC2CC2)[C@H]1O5 [Nalmefene] has a reported concentration at 2 h of 4.99
